test: NCI Yeast Anticancer Drug Screen. Data for the mec2-1 strain (AID 157); conditions: S. cerevisiae mec2-1 strain, at 50.0 µM, hits give high values
About 79,000 compounds went through this panel and 15% of them were active in at least one assay; those are over-represented in the sample as a whole.

compound: CC(=O)Nc1ccc(NC(=O)C2CC3C=CC2C3)cc1 (centres undefined)
growth inhibition [%]: -11
--
compound: CC(c1ccccc1)C1OCC(CCCCO)O1 (centres undefined)
growth inhibition [%]: -20.2
--
compound: CCOC(=O)c1[nH]c(Cc2[nH]c(C(=O)OCC)c(CC)c2C)c(C)c1CC
growth inhibition [%]: -1.1
--
compound: COc1ccc(CCNC(=S)N/C=C\c2nc3ccccc3[nH]c2=O)cc1OC
growth inhibition [%]: 2.8
--
compound: CCOc1nc(N)nc(C)c1N=Nc1ccccc1OC
growth inhibition [%]: 9.05
--
compound: Cc1ncc([N+](=O)[O-])n1CCNCCCn1ccnc1[N+](=O)[O-]
growth inhibition [%]: -7.25
--
compound: Cc1ccc(C(=O)/C=C(\C(=O)c2ccccc2)c2ccccc2)cc1C
growth inhibition [%]: 14.8
--
compound: O=C1O[C@@H]2C3COC(O)[C@](O)(O3)[C@@H]2/C1=C\c1ccc(O)cc1 (some centres undefined)
growth inhibition [%]: 10.4
--
compound: OCCc1ccc2ccccc2c1
growth inhibition [%]: -5.95
--
compound: CCC1CNCCC1CC(=O)O (centres undefined)
growth inhibition [%]: -12.8
--
compound: CC(=O)Nc1ccccc1OC(=O)c1ccccc1
growth inhibition [%]: -4.4
--
compound: C[C@H]1C(=O)CCC2[C@]3(C)CCC4(CO)[C@@H]5CC(C)(C)C(=O)C[C@]5(C)CC[C@]4(C)C3CC[C@@]21C (some centres undefined)
growth inhibition [%]: -25.6
--
compound: Cc1cc(-c2ccccc2N)nc2ccccc12
growth inhibition [%]: 2.35
--
compound: COc1ccccc1C1C2=C(COC2=O)Oc2cc3c(cc21)OCO3 (centres undefined)
growth inhibition [%]: -8.25
--
compound: COC(=O)c1sc(C(=O)OC)c2c1CS(=O)C2
growth inhibition [%]: 2.1
--
compound: Cc1cccc(-c2nnc3s/c(=C\c4ccc5c(c4)OCO5)c(=O)n23)c1
growth inhibition [%]: -12.2
--
compound: O=C1CCCc2cc3c(cc21)CC1(Cc2ccccc2C1)C3
growth inhibition [%]: -27.8
--
compound: Cc1ccc2occ(-c3nnc(NC(=O)c4ccccc4)s3)c(=O)c2c1
growth inhibition [%]: -9.75
--
compound: C#CC(CCC)NC(C)(C)C (centres undefined)
growth inhibition [%]: -13.9
--
compound: Cc1cccc(C)c1NC(=O)/C(Cc1nc2ccc([N+](=O)[O-])cc2[nH]c1=O)=N\NC(N)=O
growth inhibition [%]: 50.6
--
compound: Oc1ccc(Cl)cc1C=Nc1cnc2ccccc2c1
growth inhibition [%]: 24.9
--
compound: NS(=O)(=O)c1ccc(C(=O)O)s1
growth inhibition [%]: -11.2
--
compound: CC(=O)c1ccccn1
growth inhibition [%]: -31.4
--
compound: CCOC(=O)CC(C#N)C(C)C(=O)OCC (centres undefined)
growth inhibition [%]: 1.3
--
compound: O=[N+]([O-])c1ccc(-c2nnn(C3CC3)c2N2CCCCC2)cc1
growth inhibition [%]: -5.6
--
compound: CC(=O)O[C@H]1C[C@H]2CC[C@@]1(C)C2(C)C
growth inhibition [%]: -4.45
--
compound: CC(=O)NNc1nc(C)c(C(/C=C/c2cccc([N+](=O)[O-])c2)=N/NC(=S)NN)s1
growth inhibition [%]: -5
--
compound: COc1cc([N+](=O)[O-])c(C(=O)O)c(C(=O)O)c1OC
growth inhibition [%]: -5.55
--
compound: CCCN=C(C(C)=O)N(C)C
growth inhibition [%]: 1.3
--
compound: COC(=O)C1CCC(=O)CC1
growth inhibition [%]: -0.35
--
compound: Cc1ccc(N=Nc2ccc(N)cc2C)c(S(N)(=O)=O)c1
growth inhibition [%]: 4.05
--
compound: CN(N)C(=O)Nc1ccc([N+](=O)[O-])cc1
growth inhibition [%]: 5.65
--
compound: CCc1nc(N)nc(N)c1-c1ccc2c(c1)nnn2CCc1ccccc1
growth inhibition [%]: 0.1
--
compound: CCOc1ccc2nc3cc(I)ccc3c(N)c2c1
growth inhibition [%]: -24.2
--
compound: N#C/C(=N\NC(=O)c1ccncc1)c1ccc(Cl)cc1
growth inhibition [%]: 3.6
--
compound: Cc1ccc(-c2cc(-c3ccco3)nc(N)n2)o1
growth inhibition [%]: -9.1
--
compound: CC(=O)c1cccc2ccccc12
growth inhibition [%]: 5.55
--
compound: CC(=O)Nc1ccc(S(=O)(=O)N/N=c2/sc3ccccc3n2C)cc1
growth inhibition [%]: -12.4
--
compound: COC(=O)C(C(=O)C(N)=O)c1csc(-n2nc(-c3ccccc3)cc2-c2ccccc2)n1 (centres undefined)
growth inhibition [%]: -13.4
--
compound: Cc1ccc(S(=O)(=O)Nc2ccc([N+](=O)[O-])cc2[N+](=O)[O-])cc1
growth inhibition [%]: 15.3
--
compound: CCCSS[C@H]1NC(=O)[C@H]1NC(=O)COc1ccccc1
growth inhibition [%]: 8.5
--
compound: CN(CC#N)[C@H]1CCC[C@]1(O)C#C[Si](C)(C)c1ccccc1
growth inhibition [%]: -19.8
--
compound: CS/C(N)=N\C(=O)N(C)C
growth inhibition [%]: -14.5
--
compound: CC1CC(C)NC(=O)N1 (centres undefined)
growth inhibition [%]: 13.5
--
compound: CCCCOC(=O)NC(=O)c1cc2cc(Br)cc(Br)c2oc1=O
growth inhibition [%]: 25.8
--
compound: CC(C)(C#CCOC(=O)c1ccc([N+](=O)[O-])cc1)OC(=O)c1ccc([N+](=O)[O-])cc1
growth inhibition [%]: -3.7
--
compound: CN(C)c1ccc(/C=C/c2ccnc3c(N)cccc23)cc1
growth inhibition [%]: -8.85
--
compound: O=C(O)/C=C/c1ccncc1
growth inhibition [%]: -6.35
--
compound: COc1ccccc1-n1c(NN)nc2ccc(Br)cc2c1=O
growth inhibition [%]: 13.4

----------
test: NCI Yeast Anticancer Drug Screen. Data for the rad50 strain (AID 155);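 note: 0% = growth of vehicle-only cultures of the same strain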; conditions: S. cerevisiae rad50 strain growth inhibition; at 50.0 µM; hits give high values
Compounds without any hit were thinned out: in the full panel of roughly 79,000, 15% have a hit.
# growth inhibition per record follows

compound: CN1C(NC(=O)C(C)(C)O)C(C)(C)C(C)(C)C1NC(=O)C(C)(C)O (stereo unspecified)
growth inhibition [%]: 27.9

compound: O=C1C=C(Nc2ccc(Cl)cc2C(=O)c2ccccc2)c2ccccc2C1=O
growth inhibition [%]: 3

compound: CCN(CC)CCN1C(=O)C(=O)N(c2cccc3ccccc23)C1=O
growth inhibition [%]: -26.9

compound: CCCCCCCCCCCCCCCCOc1ccc(N)cc1
growth inhibition [%]: 11.7

compound: O=C1C=C(c2ccccc2)CC1
growth inhibition [%]: -17.8

compound: FC1(F)SC2c3ccccc3CC2C1(F)F (stereo unspecified)
growth inhibition [%]: 20.4

----------
growth inhibition for assorted compounds
Test: NCI Yeast Anticancer Drug Screen. Data for the rad50 strain (AID 155);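 note: 0% = growth of vehicle-only cultures of the same strain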
Conditions: S. cerevisiae rad50 strain growth inhibition; at 50.0 µM; hits give high values
Protocol: Growth inhibition of yeast strains with defined genetic alterations is measured as a screen for potential anti-cancer activity. Selected strains with alterations in DNA damage repair or cell cycle control were exposed to compounds and growth inhibition was measured relative to vehicle treated controls. The strain used in this assay is rad50
This is part of a sample that, as a whole, favours compounds with a hit. Of some 79,000 tested, about 15% had one in any assay.

compound: CC(=O)O/N=C1\C=Cc2c(no[n+]2[O-])C1=O
growth inhibition, %: -8.9
--
compound: NC(=O)NNC/C(Cl)=C(\Cl)C(=O)O
growth inhibition, %: -1.65
--
compound: Nc1cn(Cc2ccccc2)c(=O)n(Cc2ccccc2)c1=O
growth inhibition, %: -1.85
--
compound: CC(=O)CC(=O)NCCCc1ccccc1
growth inhibition, %: -18.8
--
compound: CN(C)CCC1(C#N)CCCCC1
growth inhibition, %: 5.3
--
compound: COC(=O)c1ccc(-c2nc(C#N)c(N)o2)cc1
growth inhibition, %: 5.9
--
compound: OCCN(CCO)c1ncnc2c1ncn2Cc1ccccc1
growth inhibition, %: -7.15
--
compound: COc1cc(-c2ccc([NH2+][B-](F)(F)F)c(OC)c2)ccc1[NH2+][B-](F)(F)F
growth inhibition, %: 21.7
--
compound: CCOCN1COCN(C)C1=O
growth inhibition, %: 8.1
--
compound: S=c1cc(S)sc2c1c(=S)sc1nc3ccccn3c(=S)c12
growth inhibition, %: -2.35
--
compound: Nc1nc(SCCc2ccccc2)nc2nc3c(c(-c4ccccc4)c12)CCCC3
growth inhibition, %: -23.3
--
compound: Cc1cccc2nc(-c3ccccn3)n(CCc3ccncc3)c12
growth inhibition, %: 98.8
--
compound: O=C1COc2cccnc2N1
growth inhibition, %: 12.7
--
compound: CCn1c(=NC(=O)c2ccccc2O)sc2ccccc21
growth inhibition, %: 16.5
--
compound: COc1cccc2c1OCC1Cc3ccccc3OC21 (configuration not stated)
growth inhibition, %: 72.2
--
compound: C=CCCC1CN2CCc3cc(OC)c(OC)cc3C2CC1=O (configuration not stated)
growth inhibition, %: 15.3
--
compound: CCN(CC)C(=O)C1(C)NS(=O)(=O)c2ccccc2C1=O (configuration not stated)
growth inhibition, %: -7.05
--
compound: CCCCCCCCCCCCSC(=O)CCC(=O)O
growth inhibition, %: -49.5
--
compound: NC1(C(=O)O)CCCCC1
growth inhibition, %: -11.3
--
compound: O=C(O)c1ccccc1SC1OC(=O)c2ccccc21 (configuration not stated)
growth inhibition, %: -0.45
--
compound: Cc1cc2c(=O)cc(-c3ccc(Cl)cc3Cl)oc2c(C(=O)O)c1C
growth inhibition, %: -19.6
--
compound: O=[N+]([O-])c1ccc(S(=O)(=O)N/N=C/C=C/c2ccccc2[N+](=O)[O-])cc1
growth inhibition, %: 5
--
compound: Cc1cc(=O)oc2c(C)c3oc4c(c3cc12)CN(C)CC4
growth inhibition, %: 26.9
--
compound: CC12CC3C(CC1SCC(=O)O2)C3(C)C (configuration not stated)
growth inhibition, %: -27.2
--
compound: CC(C)CCC(C)c1ccncc1 (configuration not stated)
growth inhibition, %: 11.7
--
compound: O=c1c(Cl)cc(Cl)cn1S(=O)(=O)c1ccc([N+](=O)[O-])cc1
growth inhibition, %: 99.1
--
compound: O=C1CCCc2ccc([N+](=O)[O-])cc21
growth inhibition, %: -3.35

Data provenance: PubChem BioAssay (NCI)
